Tested on: Setaria faberi (SETFA)
experiment.summary: Pre-emergence herbicidal activity, glasshouse pot test
Type: in vivo
stated.conditions: Setaria faberi, 480 h, rate 500 g/ha, evaluated after 20 days, read-out: Pre-emergence activity, SETFA (100=total damage to plant; 0=no damage to plant)
Description: Monocotyledonous and dicotyledonous test plants were sown in sterilised standard soil in pots. […] The test plants were then grown in a greenhouse under optimum conditions until, 14 or 15 days later for post-emergence and 20 days for pre-emergence, the test was evaluated (100=total damage to plant; 0=no damage to plant). […]
reported.endpoint: pest or weed control at 500 g/ha (%)
Your answer should be a plain number; it is taken to be in %.

Task: What value of measured pest or weed control at 500 g/ha is listed for C=CCOC1=C(c2c(CC)cc(C)cc2CC)C(=O)CC2(CCOCC2)C1 [Compound P34] ?
Result: 30

Task: What value of measured pest or weed control at 500 g/ha is listed for CCc1cc(C)cc(CC)c1C1=C(O)CC2(CCC(OC)CC2)CC1=O (centres unmarked) [Compound T68] ?
Result: 30

Task: What value of measured pest or weed control at 500 g/ha is listed for CCC[S+]([O-])C(C)CC1CC(=O)C(c2c(CC)cc(C)cc2CC)=C(O)C1 (centres unmarked) [Compound T37] ?
Result: 100

Task: What value of measured pest or weed control at 500 g/ha is listed for CCc1cc(C)cc(CC)c1C1=C(OC(=O)C(C)CC)CC2(CCOCC2)CC1=O (centres unmarked) [Compound P13] ?
Result: 100

Task: What value of measured pest or weed control at 500 g/ha is listed for CCc1cc(C)cc(CC)c1C1=C(OC(=O)OCC(C)C)CC2(CCOCC2)CC1=O [Compound P20] ?
Result: 100

Task: What value of measured pest or weed control at 500 g/ha is listed for CCc1ccc(-c2ccc(Cl)cc2)cc1C1=C(O)CC2(CCOCC2)CC1=O [Compound T4] ?
Result: 100

Task: What value of measured pest or weed control at 500 g/ha is listed for CCc1cc(C)cc(C)c1C1=C(O)CC2(CCOCC2)CC1=O [Compound T27] ?
Result: 100

Task: What value of measured pest or weed control at 500 g/ha is listed for CCc1cc(C)cc(CC)c1C1=C(OC(=O)CCCCCCC(=O)OC)CC2(CCOCC2)CC1=O [Compound P46] ?
Result: 100
